Please respond with reported herbicidal effect rating, ECHORC for every item in the list.
System: Echinochloa oryzoides (Ard.) Fritsch.
Assay: Preemergence weed control under flooded paddy conditions, ECHORC (Watergrass (Calif.)); also: meaning of each grade not given here
Assay type: in vivo
Details: Rate 0.2500 kg/ha; preemergence, flooded paddy; rated three to four weeks after treatment
Answers are plain numbers.

>>> measured_result("Cn1c(C(F)(F)F)cc(=O)n(-c2ccc3snc(C(C#N)=CC4CCCC4)c3c2)c1=O [Example 607]")
9.0
>>> measured_result("C#CCC(C#N)(CC#C)c1nsc2ccc(-n3c(=O)cc(C(F)(F)F)n(C)c3=O)cc12 [Example 581]")
9.0
>>> measured_result("CCS(=O)(=O)NC(=O)c1nsc2ccc(-n3c(=O)cc(C(F)(F)F)n(C)c3=O)cc12 [Example 383]")
8.0
>>> measured_result("CC(=O)OCCOC(=O)COc1ccc(C)cc1-c1nsc2ccc(-n3c(=O)cc(C(F)(F)F)n(C)c3=O)cc12 [Example 578]")
9.0
>>> measured_result("C=CCC(c1nsc2ccc(-n3c(=O)cc(C(F)(F)F)n(C)c3=O)cc12)S(C)(=O)=O (stereo not shown) [Example 602]")
9.0

Consider the following items and state reported herbicidal effect rating, ECHORC for each.
1. Cc1ccc(OC(C)C(=O)NS(=O)(=O)C(C)C)c(-c2nsc3ccc(-n4c(=O)cc(C(F)(F)F)n(C)c4=O)cc23)c1 (stereo not shown) [Example 568]
2. C=CS(=O)(=O)NC(=O)C(C)Oc1ccc(C)cc1-c1nsc2ccc(-n3c(=O)cc(C(F)(F)F)n(C)c3=O)cc12 (stereo not shown) [Example 570]
3. CN(C(=O)c1nsc2ccc(-n3c(=O)cc(C(F)(F)F)n(C)c3=O)cc12)c1ccc(Cl)cc1 [Example 365]
4. CONC(=O)c1nsc2ccc(-n3c(=O)cc(C(F)(F)F)n(C)c3=O)cc12 [Example 403]
5. Cn1c(C(F)(F)F)cc(=O)n(-c2ccc3snc(COCc4cccc([N+](=O)[O-])c4)c3c2)c1=O [Example 588]
6. Cc1cccc(COCc2nsc3ccc(-n4c(=O)cc(C(F)(F)F)n(C)c4=O)cc23)c1 [Example 587]
7. CCCCCCCCCCCCS(=O)(=O)NC(=O)c1nsc2ccc(-n3c(=O)cc(C(F)(F)F)n(C)c3=O)cc12 [Example 358]

output:
1: 6.0; 2: 6.0; 3: 9.0; 4: 4.0; 5: 7.0; 6: 9.0; 7: 5.0

---

System: Cyperus iria
Test: Preemergence weed control under flooded paddy conditions, CYPIR (Rice Flatsedge); also: meaning of each grade not given here
Assay type: in vivo
Conditions: Rate 0.0620 kg/ha; preemergence, flooded paddy; rated three to four weeks after treatment
reported_metric: herbicidal effect rating, CYPIR

>>> measured_result("COc1ccc(O)c(-c2nsc3ccc(-n4c(=O)cc(C(F)(F)F)n(C)c4=O)cc23)c1")
0.0

Consider the following items and state reported herbicidal effect rating, CYPIR for each.
1. CCCCS(=O)(=O)NC(=O)COc1ccccc1-c1nsc2ccc(-n3c(=O)cc(C(F)(F)F)n(C)c3=O)cc12
2. COCCOCCOC(=O)c1nsc2ccc(-n3c(=O)cc(C(F)(F)F)n(C)c3=O)cc12
3. CC(C)S(=O)(=O)OCc1nsc2ccc(-n3c(=O)cc(C(F)(F)F)n(C)c3=O)cc12
4. Cn1c(C(F)(F)F)cc(=O)n(-c2ccc3snc(C(C#N)=CC4CCCC4)c3c2)c1=O
5. Cn1c(C(F)(F)F)cc(=O)n(-c2ccc3snc(C(C#N)=Cc4ccco4)c3c2)c1=O

output:
5.5
5.0
6.0
2.0
5.0

Consider the following items and state reported herbicidal effect rating, CYPIR for each.
1. Cn1c(C(F)(F)F)cc(=O)n(-c2ccc3snc(COS(=O)(=O)c4ccccc4)c3c2)c1=O
2. Cn1c(C(F)(F)F)cc(=O)n(-c2ccc3snc(COCc4ccc([N+](=O)[O-])cc4)c3c2)c1=O
3. CCCCS(=O)(=O)OCc1nsc2ccc(-n3c(=O)cc(C(F)(F)F)n(C)c3=O)cc12
4. COCc1nsc2cc(F)c(-n3c(=O)cc(C(F)(F)F)n(C)c3=O)cc12
5. Cn1c(C(F)(F)F)cc(=O)n(-c2ccc3snc(C(C#N)(Cc4ccccc4)Cc4ccccc4)c3c2)c1=O

output:
1. 6.0
2. 2.0
3. 7.0
4. 9.0
5. 4.0

Consider the following items and state reported herbicidal effect rating, CYPIR for each.
1. Cn1c(C(F)(F)F)cc(=O)n(-c2ccc3snc(CSc4ccccc4)c3c2)c1=O
2. CC/C(C=O)=C\c1nsc2ccc(-n3c(=O)cc(C(F)(F)F)n(C)c3=O)cc12

output:
[0.0, 9.0]

Consider the following items and state reported herbicidal effect rating, CYPIR for each.
1. COC(=O)COc1ccc(C)cc1-c1noc2cc(F)c(-n3c(=O)cc(C(F)(F)F)n(C)c3=O)cc12
2. CCS(=O)(=O)NC(=O)C(C)Oc1ccc(C)cc1-c1nsc2ccc(-n3c(=O)cc(C(F)(F)F)n(C)c3=O)cc12 (stereo not drawn)

output:
1. 7.5
2. 3.0

---

Please respond with reported ORYSAT herbicidal effect rating for every item in the list.
System: Oryza sativa, (L.) Tebonnet
Assay: Rice tolerance to post-transplant applications under flooded paddy conditions (Example 187), ORYSAT (Rice, Tebonnet)
Details: Rate 0.2500 kg/ha, rated three to four weeks after treatment
Numbers only.

Consider the following items and state reported ORYSAT herbicidal effect rating for each.
1. C#CCOC(=O)COc1c(-c2nsc3ccc(-n4c(=O)cc(C(F)(F)F)n(C)c4=O)cc23)ccc(C)c1C
2. CCOc1ccc2sc(S(=O)(=O)NC(=O)COc3ccc(C)cc3-c3nsc4ccc(-n5c(=O)cc(C(F)(F)F)n(C)c5=O)cc34)nc2c1
3. Cc1nsc2ccc(-n3c(=O)cc(C(F)(F)F)n(CC#N)c3=O)cc12
4. Cn1c(C(F)(F)F)cc(=O)n(-c2ccc3snc(-c4ccc(OCC(=O)OC(C)(C)C)cc4)c3c2)c1=O
5. Cc1ccc(OCC(=O)OC(C)(C)C)c(-c2noc3ccc(-n4c(=O)cc(C(F)(F)F)n(C)c4=O)c(Cl)c23)c1
6. Cn1c(C(F)(F)F)cc(=O)n(-c2ccc3snc(COCC(=O)O)c3c2)c1=O
7. Cn1c(C(F)(F)F)cc(=O)n(-c2ccc3snc(C=C(Br)Br)c3c2)c1=O

output:
1. 8.0
2. 0.0
3. 7.0
4. 4.0
5. 0.0
6. 0.0
7. 0.0

---

Tested on: Cyperus iria
Test: Preemergence weed control under flooded paddy conditions, CYPIR (Rice Flatsedge); also: meaning of each grade not given here
Type: in vivo
Details: Rate 0.0620 kg/ha; preemergence, flooded paddy; rated three to four weeks after treatment
Please respond with reported herbicidal effect rating, CYPIR for every item in the list.
Give bare numbers.

Recorded herbicidal effect rating, CYPIR, per entry:
>>> measured_result("Cn1c(C(F)(F)F)cc(=O)n(-c2cc3c(CBr)nsc3cc2F)c1=O")
8.0
>>> measured_result("Cn1c(C(F)(F)F)cc(=O)n(-c2ccc3snc(C(C#N)=Cc4ccncc4)c3c2)c1=O")
0.0
>>> measured_result("Cn1c(C(F)(F)F)cc(=O)n(-c2ccc3snc(COCc4ccc(Cl)c(Cl)c4)c3c2)c1=O")
8.5
>>> measured_result("CCSCCOC(=O)c1nsc2ccc(-n3c(=O)cc(C(F)(F)F)n(C)c3=O)cc12")
6.0
>>> measured_result("CNC(=O)OCc1nsc2ccc(-n3c(=O)cc(C(F)(F)F)n(C)c3=O)cc12")
9.0
>>> measured_result("Cn1c(C(F)(F)F)cc(=O)n(-c2ccc3snc(C(C#N)=Cc4cnc[nH]4)c3c2)c1=O")
0.0

Consider the following items and state reported herbicidal effect rating, CYPIR for each.
1. Cn1c(C(F)(F)F)cc(=O)n(-c2ccc3snc(COCc4ccc(Cl)cc4Cl)c3c2)c1=O
2. Cn1c(C(F)(F)F)cc(=O)n(-c2ccc3snc(C(=O)NS(=O)(=O)c4ccc5ccccc5c4)c3c2)c1=O

output:
8.5
0.0

---

System: Oryza sativa, (L.) Tebonnet
Test: Rice tolerance to post-transplant applications under flooded paddy conditions (Example 187), ORYSAT (Rice, Tebonnet); as to herbicidal effect rating ORYSAT: meaning of each grade not given here
Conditions: Rate 0.0620 kg/ha, rated 3-4 weeks after treatment
reported_metric: herbicidal effect rating ORYSAT
Numbers only.

Recorded herbicidal effect rating ORYSAT, per entry:
>>> measured_result("C=CS(=O)(=O)NC(=O)COc1ccc(C)cc1-c1nsc2ccc(-n3c(=O)cc(C(F)(F)F)n(C)c3=O)cc12")
4.0
>>> measured_result("Cc1ccc(OCC(=O)c2ccc(Cl)cc2)c(-c2nsc3ccc(-n4c(=O)cc(C(F)(F)F)n(C)c4=O)cc23)c1")
0.0
>>> measured_result("CNC(=O)COc1ccccc1-c1nsc2ccc(-n3c(=O)cc(C(F)(F)F)n(C)c3=O)cc12")
3.0

Consider the following items and state reported herbicidal effect rating ORYSAT for each.
1. COCC(C)OC(=O)C(C)(C)Oc1ccc(C)cc1-c1nsc2ccc(-n3c(=O)cc(C(F)(F)F)n(C)c3=O)cc12 (stereo not drawn)
2. CCS(=O)(=O)NC(=O)COc1ccccc1-c1nsc2ccc(-n3c(=O)cc(C(F)(F)F)n(C)c3=O)cc12
3. CCCCCCC#CCCOC(=O)COc1ccc(C)cc1-c1nsc2ccc(-n3c(=O)cc(C(F)(F)F)n(C)c3=O)cc12

output:
1: 0.0; 2: 7.0; 3: 4.0
